target: human S1P5 receptor (S1PR5) (Homo sapiens, UniProt Q9H228); construct: host or cells: CHO-K1; assay: Intracellular Ca2+ release (method 1), agonist potency and efficacy, S1P5; format: cell-based; details: recombinant CHO-K1 cells expressing human S1PR5, aequorin, Gq/i5; Ca2+ release; read-out: S1P5 EC50 range
Sequence (Q9H228 whole entry): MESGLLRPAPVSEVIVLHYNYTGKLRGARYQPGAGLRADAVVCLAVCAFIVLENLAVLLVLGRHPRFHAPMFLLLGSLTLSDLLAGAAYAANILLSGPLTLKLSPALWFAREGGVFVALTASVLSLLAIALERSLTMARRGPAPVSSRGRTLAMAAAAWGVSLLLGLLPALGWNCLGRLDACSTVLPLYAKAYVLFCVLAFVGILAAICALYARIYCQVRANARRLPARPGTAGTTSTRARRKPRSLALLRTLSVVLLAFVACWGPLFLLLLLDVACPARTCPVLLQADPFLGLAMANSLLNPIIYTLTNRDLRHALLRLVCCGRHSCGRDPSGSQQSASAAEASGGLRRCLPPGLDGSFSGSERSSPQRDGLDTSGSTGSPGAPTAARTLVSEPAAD

{"columns": ["MOLECULE", "TEST_TARGET", "EC50"],
 "data": [
  ["O=C(O)C1CC(N2Cc3ccc(C#Cc4ccc(OC(F)(F)F)c(F)c4)cc3C3(CC3)C2)C1 (centres unmarked) [Compound 71]", "human S1P5 receptor (S1PR5) (Homo sapiens, UniProt Q9H228)", "10 to 100 nM"],
  ["O=C(O)CCCN1Cc2ccc(OCc3ccc(Cl)c(Cl)c3)cc2C2(CC2)C1 [Compound 26]", "human S1P5 receptor (S1PR5) (Homo sapiens, UniProt Q9H228)", "10 to 100 nM"],
  ["O=C(O)CCN1Cc2ccc(C#Cc3cccc(Cl)n3)cc2C2(CC2)C1 [Compound 40]", "human S1P5 receptor (S1PR5) (Homo sapiens, UniProt Q9H228)", "100 to 1000 nM"],
  ["O=C(O)CCCN1Cc2ccc(OCc3cccc(F)c3F)cc2C2(CC2)C1 [Compound 21]", "human S1P5 receptor (S1PR5) (Homo sapiens, UniProt Q9H228)", "10 to 100 nM"],
  ["CCOc1ccc(C#Cc2ccc3c(c2)C2(CC2)CN(CCCC(=O)O)C3)cc1 [Compound 3, 2,2,2-trifluoroacetate]", "human S1P5 receptor (S1PR5) (Homo sapiens, UniProt Q9H228)", "< 10 nM"],
  ["O=C(O)CCCN1Cc2ccc(OCc3ccccc3F)cc2C2(CC2)C1 [Compound 19]", "human S1P5 receptor (S1PR5) (Homo sapiens, UniProt Q9H228)", "< 10 nM"],
  ["CC(C)Oc1ccc(C#Cc2ccc3c(c2)C2(CC2)CN(CCCC(=O)O)C3)cn1 [Compound 2]", "human S1P5 receptor (S1PR5) (Homo sapiens, UniProt Q9H228)", "< 10 nM"],
  ["CCOc1ccc(C#Cc2ccc3c(c2)C2(CC2)CN(CC(C)CC(=O)O)C3)cc1F (centres unmarked) [Compound 69]", "human S1P5 receptor (S1PR5) (Homo sapiens, UniProt Q9H228)", "10 to 100 nM"]
]}

====

Recorded Emax by entry
target: human S1P5 receptor (S1PR5) (Homo sapiens); construct: host or cells: CHO-K1; experiment: Intracellular Ca2+ release (method 1), agonist potency and efficacy, S1P5; assay type: cell-based; settings: maximum effect in % of reference agonist phospho-fingolimod (100%); read-out: hS1P5 EMax
OBSERVED_PROPERTY: Emax

{"columns": ["MOLECULE", "OBSERVED_PROPERTY", "REPORTED_RESULT"],
 "data": [
  ["CC(C)c1ccc(C#Cc2ccc3c(c2)C2(CC2)CN(CCCC(=O)O)C3)cc1 [Compound 1, 2,2,2-trifluoroacetate]", "Emax", "50 to 100%"],
  ["O=C(O)CCCN1Cc2ccc(OCc3cccc(Cl)c3)cc2C2(CC2)C1", "Emax", "50 to 100%"],
  ["O=C(O)CCCN1Cc2ccc(OCc3ccc(Cl)cc3)cc2C2(CC2)C1", "Emax", "< 50%"],
  ["CCOc1cc(C)c(C#Cc2ccc3c(c2)C2(CC2)CN(CCCC(=O)O)C3)cn1", "Emax", "50 to 100%"],
  ["CCOc1ccc(C#Cc2ccc3c(c2)C2(CC2)CN(CC(C)CC(=O)O)C3)cc1 (centres unmarked)", "Emax", "50 to 100%"],
  ["CC(CC(=O)O)CN1Cc2ccc(C#Cc3ccc(OC(F)(F)F)c(F)c3)cc2C2(CC2)C1 (centres unmarked)", "Emax", "50 to 100%"],
  ["O=C(O)CCCN1Cc2ccc(OCc3ccc(Cl)c(Cl)c3)cc2C2(CC2)C1", "Emax", "50 to 100%"],
  ["CCc1cccc(Cl)c1COc1ccc2c(c1)C1(CC1)CN(C(C)C(=O)O)C2 (centres unmarked)", "Emax", "50 to 100%"],
  ["Cc1ccccc1C#Cc1ccc2c(c1)C1(CC1)CN(CCC(=O)O)C2", "Emax", "50 to 100%"],
  ["O=C(O)CCN1Cc2ccc(C#Cc3cc(F)cc(F)c3)cc2C2(CC2)C1", "Emax", "50 to 100%"],
  ["O=C(O)CCN1Cc2ccc(C#Cc3cccc(F)c3F)cc2C2(CC2)C1", "Emax", "> 100%"],
  ["COc1ncc(C#Cc2ccc3c(c2)C2(CC2)CN(CCCC(=O)O)C3)cc1F", "Emax", "< 50%"],
  ["CCc1cccc(Cl)c1COc1ccc2c(c1)C1(CC1)CN(CC(=O)O)C2", "Emax", "50 to 100%"],
  ["O=C(O)CCCN1Cc2ccc(OCc3cccc(F)c3F)cc2C2(CC2)C1", "Emax", "< 50%"],
  ["O=C(O)CCCN1Cc2ccc(OCc3ccc(F)cc3)cc2C2(CC2)C1", "Emax", "50 to 100%"],
  ["O=C(O)CCCN1Cc2ccc(OCc3cccc(F)c3)cc2C2(CC2)C1", "Emax", "50 to 100%"],
  ["CC(CC(=O)O)CN1Cc2ccc(C#Cc3ccc(OC(F)(F)F)cc3)cc2C2(CC2)C1 (centres unmarked)", "Emax", "> 100%"]
]}
